Assay comment: basal CRE-LacZ reporter activity in PC12 – cell-based, unstimulated, primary screen (AID 1145)
Condition summary: no forskolin, luminescence, 4.5 h, higher = more signal, called active from +8 up or from −8 down
Lab note: compare z-score against 0.1. Equal or greater, write 1.0. Smaller, write 0.0.

Use these answered entries as a reference point.
{"columns": ["Molecule", "Category label"],
 "data": [
  ["O=C1O[C@@H](c2ccccc2)[C@@H](c2ccccc2)N2[C@@H](c3ccc(OCCO)cc3)[C@]3(C(=O)Nc4ccc(C#CC5(O)CCCCCC5)cc43)[C@@H](C(=O)O)[C@H]12", 0.0],
  ["CC(C)N1C(=O)c2ccccc2[C@](C)(C(=O)NCC(F)(F)F)[C@@H]1c1ccc(CO)cc1", 1.0],
  ["COc1cc(C(O)C2C=CC3C(=O)N(c4ccccc4)C(=O)C3N2Nc2ccccc2)cc(OC)c1OC (centres undefined)", 0.0],
  ["O=C1C2C=CC(C(O)c3cccs3)N(Nc3ccc([N+](=O)[O-])cc3)C2C(=O)N1c1ccccc1 (centres undefined)", 0.0],
  ["C=CCOC(=O)[C@H]1[C@@H]2C(=O)O[C@@H](c3ccccc3)[C@@H](c3ccccc3)N2[C@@H](c2ccc(OCCOC(=O)[C@H]3C[C@H]4C(=O)N[C@@H](CC(C)C)C(=O)N4[C@H]3c3ccc(O)cc3)cc2)[C@]12C(=O)Nc1ccccc12", 0.0]
]}

Item `COc1ccc([Si](C)(C)[C@@H]2[C@@H](CC(=O)N3CCC[C@H]3CO)O[C@]3(C(=O)N(Cc4cccc(N5CCCCC5=O)c4)c4ccccc43)[C@H]2C)cc1` with z-score of 0.1 or above?
1.0

Could you tell me if the measured z-score of `COC(=O)[C@@]1(Cc2ccc(OC)cc2)[C@H]2c3cc(C(=O)N4CCCC4)n(Cc4ccc(C(F)(F)F)nc4)c3C[C@H]2CN1C(=O)c1ccccc1` reaches 0.1 or more?
0.0

Reported z-score reaches at least 0.1 for CC(C)C(CO)N1C(=O)[C@@H]2C3C(=O)OCCC/C=C\[C@H]3OC23C=CCN(Cc2ccccc2)C(=O)[C@@H]13 (some centres undefined) ?
1.0

I'd appreciate it if you could say whether `Cc1ccc(S[C@]2(C(=O)NC(C)C)CC(=O)N(C3CCCCC3)[C@@H]2c2ccc(CO)cc2I)cc1` has z-score at least equal to 0.1.
0.0
